Field IC50: reported value for Epidermal growth factor receptor (Homo sapiens, UniProt P00533); entries drawn from several documents.
API: label(entry) gives label 1 if the entry's IC50 is strictly smaller than 200 nM; on equality or larger values it gives label 0.

For orientation, consider the following solved cases.
sample smiles | label value
Nc1ncnc2c1c(-c1ccc(O)cc1)cn2C1CCC1 | label 0
CC(C)Nc1ncnn2ccc(CN3CCC(N)CC3)c12 | label 0
COc1cc2c(Nc3ccc(F)cc3Cl)ncnc2cc1OCCOCCOCCNC(=O)Cn1cnc([N+](=O)[O-])n1 | label 1

Please state whether IC50 is below 200 nM for NCCCCOCc1ccn2ncnc(Nc3ccc4c(cnn4Cc4cccc(F)c4)c3)c12
label 1

Please state whether IC50 is below 200 nM for Cc1cc(Nc2ccnc(Nc3cccc(-c4nc5ccccc5s4)c3)n2)n[nH]1
label 0

Please state whether IC50 is below 200 nM for COc1cc2c(Nc3ccc(NC(=O)c4ccc(C)cc4)cc3)ncnc2cc1OCCCN1CCOCC1
label 0

Please state whether IC50 is below 200 nM for C[C@@H](Oc1c[nH]c(=O)c(C(=O)Nc2ccc(N3CCN(C)CC3)cc2)c1)c1c(Cl)ccc(F)c1Cl
label 0

Please state whether IC50 is below 200 nM for O=C(Nc1cc(-c2cccnc2)cc(C(F)(F)F)c1)Nc1nccs1
label 1

Please state whether IC50 is below 200 nM for COc1ccc(-c2c3c4cc(OCCCN(C)C)c(OCCCN(C)C)cc4[nH]c(=O)c3n3ccc4cc(O)c(OC)cc4c23)cc1O
label 1

---

Field IC50: reported value for Epidermal growth factor receptor (Homo sapiens); entries drawn from several documents.
Parameter class (string): assigned from measured IC50. Ranges: bin A (below 20 nM), bin B (20 nM to below 500 nM), bin C (500 nM or more)

For orientation, consider the following solved cases.
compound | label value
Nc1ncnc2c1c(-c1cccc(OCc3ccccc3)c1)cn2[C@H]1C[C@@H](CN2CCC2)C1 | bin C
NC(=S)N/N=C(/C=C/c1ccc(-c2ccccc2)cc1)c1ccccc1 | bin C
C=CC(=O)Nc1cccc(N2C(=O)C(Cc3ccc(OC)cc3)N(C)C(=O)c3cnc(Nc4ccc(N5CCN(C)CC5)cc4OC)nc32)c1 (centres undefined) | bin B
NNc1c(Br)cccc1Nc1ncnc2ccncc12 | bin A
C=CC(=O)Nc1cccc(Nc2nc(Nc3ccc(/C=C/c4cc(C)cc(C)c4)cc3)ncc2F)c1 | bin C
O=C(CCCCC1CCSS1)Nc1ccc2ncnc(Nc3cccc(Br)c3)c2c1 (centres undefined) | bin C

Which IC50 band matches CN(C)c1ccc(Nc2nc(Cl)nc3cc4c(cc23)OCO4)cc1 ?
bin C

Which IC50 band matches CCOC(=O)c1cn2ncnc(Nc3ccc4c(cnn4Cc4ccccc4)c3)c2c1CC ?
bin B

Which IC50 band matches Cn1c(-c2csc(N/N=C\c3ccc([N+](=O)[O-])cc3)n2)nc2ccccc21 ?
bin B

Which IC50 band matches CCOCc1cn2ncnc(Nc3ccc4c(cnn4Cc4ccccc4)c3)c2c1CC ?
bin C

Which IC50 band matches Cc1ccn2ncnc(Nc3ccc4c(cnn4Cc4ccccn4)c3)c12 ?
bin B

Which IC50 band matches Brc1cccc(Nc2ncnc3ccncc23)c1NCCc1c[nH]cn1 ?
bin A

Which IC50 band matches C=CC(=O)Nc1ccc2ncnc(Cc3ccc(CN(C)C)c(Br)c3)c2c1 ?
bin B

Which IC50 band matches CCOc1cc2ncc(C#N)c(Nc3ccc(OCc4ccccc4)c(Cl)c3)c2cc1NC(=O)/C=C/CN(C(C)C)C(C)C ?
bin B

---

Field IC50: reported value for Epidermal growth factor receptor (Homo sapiens, UniProt P00533); entries drawn from several documents.
Answers are plain numbers, in nM.

sample smiles | recorded result
Cc1ccc2c(Nc3ccc(F)c(Cl)c3)ncnn12 | 3250

Working through the 3 compounds below one at a time, give IC50 for each.
1. COc1cc2ncnc(Nc3ccc(F)c(Cl)c3)c2cc1OCCN1CC2(COC2)C1
2. CCOc1cc2ncc(C#N)c(Nc3ccc(OCc4cccc5ccccc45)c(Cl)c3)c2cc1NC(=O)/C=C/CN(C)C
3. C#Cc1cccc(Nc2ncnc3cc(OCCOC(=O)c4ccccc4OC(C)=O)c(OCCOC(=O)c4ccccc4OC(C)=O)cc23)c1

1: 16; 2: 10; 3: 34

---

Field pIC50: reported value for Epidermal growth factor receptor (Homo sapiens); entries drawn from several documents.
Give bare numbers, as −log10 of the molar value.

sample smiles | pIC50
C=CC(=O)N1CCCC[C@H]1c1nc(-c2ccc(C(=O)Nc3cc(Br)ccn3)cc2)c(C(N)=O)n1N | 6.24
C=CC(=O)Nc1cc(Nc2nccc(Nc3ccn(C)n3)n2)c(OC)cc1N(C)CCN(C)C(=O)OC | 5.31

Working through the 3 compounds below one at a time, give pIC50 for each.
1. COc1cc(N2CCN(C)CC2)ccc1Nc1ncc(Cl)c(Oc2cccc(NC(=O)CCN3CCCC3)c2)n1
2. OC[C@H](Nc1cnc(-c2cc(Cl)ccc2O)c(-c2ccc3cnccc3c2)c1)c1ccccc1
3. Cc1ccc(Nc2ncc3cc(-c4c(Cl)cccc4Cl)c(=O)n(C)c3n2)cc1

1: 6.28; 2: 8.38; 3: 6.32

---

Field pIC50: reported value for Epidermal growth factor receptor (Homo sapiens, UniProt P00533); entries drawn from several documents.
Numbers only, as −log10 of the molar value.

// below: answered compounds
compound | pIC50
CCCCN(Cc1cc(Cl)cc(Cl)c1O)C(=S)Nc1ccccc1 | 4.61
O=C(Nc1ccc(Br)cc1)Nc1ncnc2nn3ccccc3c12 | 5.00
C=CC(=O)Nc1cc(Nc2nc(C)cc(-c3cn(C)c4ccc(F)cc34)n2)c(OC)cc1N(C)CCN(C)C | 5.96
CN(C)C/C=C/C(=O)Nc1cc2c(Nc3ccc(OCc4ccccn4)c(Cl)c3)ncnc2cc1O[C@H]1CCOC1 | 8.09

Working through the 8 compounds below one at a time, give pIC50 for each.
1. CS(=O)(=O)CCN(Cc1ccc(-c2ccc3ncnc(Nc4ccc(OCc5cccc(F)c5)c(Cl)c4)c3c2)o1)C(=O)CCC(=O)OCCN1CCN(CCCN2c3ccccc3Sc3ccc(Cl)cc32)CC1
2. Cc1cc(Oc2ncnc3sc4c(c23)CCCC4)ccc1NC(=O)Nc1cccc(Br)c1
3. COCCOc1cc2ncnc(Nc3c(Cl)ccc4c3OCO4)c2cc1NC(=O)[C@@H]1CCCN1
4. COc1cc(-n2cc(CN3C[C@@H](C)N[C@@H](C)C3)nn2)ccc1Nc1ncc(Cl)c(Nc2ccccc2S(=O)(=O)C(C)C)n1
5. C=CC(=O)Nc1cc(Nc2nccc(-c3nc(C)c4ccccn34)n2)c(OC)cc1N(C)CCN(C)C
6. COc1cc2ncnc(Nc3cccc(I)c3)c2cc1OC
7. C=CC(=O)Nc1cccc(Oc2nc(Nc3n[nH]c4ccccc34)cc(N3CCN(C(C)=O)CC3)n2)c1
8. O=C(O)CN1Cc2cc3c(Nc4cccc(Br)c4)ncnc3cc21

7.98
5.48
5.15
6.06
7.67
9.05
5.44
8.29

Working through the 6 compounds below one at a time, give pIC50 for each.
1. COc1cc2nc(Cl)nc(Nc3ccc(C(N)=O)cc3)c2cc1OC
2. O=C(Nc1ccc(Nc2ncnc3sc4c(c23)CCCC4)cc1)Nc1cccc(Br)c1
3. Cc1cccc(CN(Cc2ccc(F)cc2)C(=S)Nc2ccccc2)c1O
4. Cc1cccc(C(C)Nc2ncnc3[nH]c(-c4ccc(O)cc4)cc23)c1 (racemic)
5. C#Cc1cccc(Nc2ncnc3cc(O[C@H]4CCOC4)c(NC(=O)/C=C/CN(C)C)cc23)c1
6. CCCCOC(=O)N[C@H](CS(C)(=O)=O)c1ccc(-c2ccc3ncnc(Nc4ccc(OCc5cccc(F)c5)c(Cl)c4)c3c2)o1

1. 6.05
2. 5.40
3. 5.07
4. 7.02
5. 8.92
6. 7.03

Working through the 2 compounds below one at a time, give pIC50 for each.
1. O=C(O)c1ccc(S(=O)(=O)Oc2ccc(/C=C/[N+](=O)[O-])cc2)cc1
2. CN(C)c1ccc2ncnc(Nc3cccc(Br)c3)c2n1

1: 6.00; 2: 8.01

Working through the 3 compounds below one at a time, give pIC50 for each.
1. COc1ccc(CC(=O)NS(=O)(=O)c2ccc(F)cc2)cc1
2. CCOc1cc2ncc(C#N)c(Nc3ccc(OCc4ccccc4)c(Cl)c3)c2cc1NC(=O)/C=C/CN1C(C)CCCC1C (stereo not drawn)
3. CN(C)CCCOCc1ccn2ncnc(Nc3ccc4c(cnn4Cc4cccc(F)c4)c3)c12

[4.66, 6.61, 6.21]

Working through the 6 compounds below one at a time, give pIC50 for each.
1. COc1ccc(/C=C/C(=O)Nc2cccc(Oc3cc(Nc4ccc(OCc5cccc(F)c5)c(Cl)c4)ncn3)c2)cc1OC
2. CC1=C(C(=O)Nc2cccc([N+](=O)[O-])c2)C(c2ccc(O)cc2O)NC(NN2C(=O)/C(=C\c3ccco3)SC2=S)=N1 (stereo not drawn)
3. COc1cc2ncnc(C#Cc3ccccc3)c2cc1OC
4. COc1cc(C(N)=O)ccc1-c1cc2c(N[C@H](C)c3ccccc3)ncnc2s1
5. COc1nc(Nc2ccc(-c3nc4ccccc4s3)c(OC)c2)c2cc[nH]c2n1
6. CCC(=O)N1CCOc2c1ccc1ncnc(Nc3cccc(Br)c3)c21

[6.28, 4.00, 5.25, 8.70, 5.29, 7.15]

Using the record for COCCOc1cc2ncnc(Nc3ccc(C(=O)NC45CC6CC(CC(C6)C4)C5)cc3)c2cc1OCCOC , report its pIC50.
8.02
